Source listed as PubChem BioAssay (NCI).

# Tested on: RXF 393 renal
# Assay Method Text: NCI-60 one-dose screen, 48 h (100 = growth as untreated, 0 = no growth, -100 = all killed)
# Experimental Context: 10 µM unless noted
# Method: Cells are grown in 96 well plates and exposed to the test compound for 48 hours. Compounds are tested at a single concentration, which is 10^-5 M for most compounds. The reported endpoint is percent growth (GI% or GIPRCNT), where numbers from 0 - 100% represent growth inhibition, and numbers from -100% - 0 represent cell death. For example, a value of 40 represents 60% growth inhibition. A value of 0 means no net growth occurred over the course of the experiment. […]
The panel holds about 83,000 compounds, 20% with a hit somewhere; the sample as a whole holds those more often.
I'd appreciate it if you could supply growth values for the items below.
The figure you give is taken to be in %; do not add the unit.

Notebook entry, RXF 393 renal assay: growth of `COC(=O)CCCCN=Cc1c(O)c(O)c(C(C)C)c2cc(C)c(-c3c(C)cc4c(C(C)C)c(O)c(O)c(C=NCCCCC(=O)OC)c4c3O)c(O)c12` = ?
8.84

Field: growth (RXF 393 renal). Entry: `O=C(Cc1n[nH]c(=O)c2ccccc12)OCc1c(Cl)cccc1Cl`
52.5

What growth appears in the records for this compound with RXF 393 renal? `COc1cc(OC)c(C(=O)/C=C/c2cccc(C#N)c2)c(OC)c1`
-3.8

Write down the reported growth of NC(CC(N)C(=O)O)C(=O)O (stereo not given) , test system: RXF 393 renal.
89.6

Query the reported growth for RXF 393 renal; item: `COc1ccc(/C(=N\O)c2cc(OC)c(OC)c(OC)c2)c(OC)c1N`
16.8

Look up growth with RXF 393 renal for this compound: CCOC(=O)c1ccccc1NC(c1ccccc1)c1ccc2cccnc2c1O (stereo not given)
25

Given the entry `COc1cc(Cn2c(SCC(=O)Nc3ccc(Cl)cc3)nc3ccccc3c2=O)cc(OC)c1OC` , what growth was observed with RXF 393 renal?
19.1

Request body: readout growth, system RXF 393 renal, query `O=C1OC(c2ccccc2)=N/C1=C\c1ccc([N+](=O)[O-])cc1` . Return the value.
101

Please state recorded growth (tested on RXF 393 renal) of `Cc1ccnc2nc(C(=O)OCC(=O)Nc3ccc(-c4ccccc4)cc3)nn12`
49.7

Notebook: pull reported growth for RXF 393 renal, entry CCOC(=O)C(Cc1ccccc1)n1c(O)c(C=Nc2ccc(C(=O)OCCN(CC)CC)cc2)sc1=O (stereo not given)
84.7

// fetch RXF 393 renal growth for `O=C(O)c1ccc(-n2cc(CNc3ccc(C(F)(F)F)cc3)c(-c3ccccc3)n2)cc1`
99.4

// lookup growth | system=RXF 393 renal | key= `N#Cc1ncc(-c2ccc(F)c(F)c2F)c(NC2CCCCCC2)n1`
77.5

Item: `O=P([O-])(O)OP(=O)([O-])O.[NH-][C@H]1CCCC[C@@H]1[NH-].[OH-].[OH-].[Pt+4]` Test system: RXF 393 renal Read-out: growth Value: ?
115

Lab note: need growth for CC(Br)C(O)c1cc2c(cc1Br)OCO2 (stereo not given) on RXF 393 renal, anyone have it?
104

RXF 393 renal / growth / `CC(C)C[C@H](NC(=O)Cn1ccc(NCc2ccccc2)cc1=O)B(O)O` : value?
-51.7

* * *

For each entry below, report its growth value.
# Test system: U251 CNS
# Assay Method Text: NCI-60 one-dose screen, 48 h (100 = growth as untreated, 0 = no growth, -100 = all killed)
# Experimental Context: 10 µM unless noted
About 83,000 compounds went through this panel and 20% of them were active in at least one assay; those are over-represented in the sample as a whole.
Answer format: numeric, % implied, no suffix.

Sample `OCc1c(-c2ccccc2)nc2sccn12` — what was its growth?
95.6

Requested read-out: growth. Entry: `COc1ccc(-c2nc3sccn3c2-c2ccnc(NCCCNS(=O)(=O)c3ccc(F)cc3)n2)cc1`
26.1

Request the reported growth associated with `Cc1cc(NC(=O)COC(=O)c2sc3cc(F)ccc3c2Cl)no1`
106

Suppose we examine the compound `Clc1cccc(Cl)c1Cn1c(-c2cncs2)nc2ccccc21` ; what growth value has been reported?
93.7

Consider the compound `COc1ccc(C(=O)/C=C/c2cc(C(=O)c3cc(OC)c(OC)c(OC)c3)ccc2OC)cc1` and give its measured growth.
52.4

* * *

# Test system: RXF 393 renal
# Assay Method Text: NCI-60 one-dose screen, 48 h
# Experimental Context: 10 µM unless noted
This is part of a sample that, as a whole, favours compounds with a hit. Of some 83,000 tested, about 20% had one in any assay. Calls of active or inactive are those of the source. The calls were made as follows: active = growth percent below 10; inactive = the rest.
# output must be one of TRUE for active, FALSE for inactive

Tell me the recorded outcome of this test for `COc1ccc(/C=C\c2cc(OC)c(OC)c(OC)c2)c(NS(=O)(=O)c2ccc(C(C)(C)C)cc2)c1O` .
FALSE

// outcome(item) with item = `Cc1ccc(Cn2c(-c3cccs3)nc3ccccc32)cc1`
FALSE

State the result this test recorded for `NC(=O)c1cccc(N2Cc3ccccc3OC3=C2C(=O)c2c(O)ccc(O)c2C3=O)c1` .
TRUE

Can you look up the reported call for `COc1ccc(-n2c(C)cc(-c3ccccc3)c2C)cc1` for me?
FALSE

Please state the recorded outcome for this compound: `CCCCCCCCCCC/C=C\C[C@H](O)C/C=C1/C(=O)C=C[C@@H]1C/C=C\CCCC(=O)OC`
TRUE

Recorded test outcome, item `COC1=CC(c2ccc[nH]2)=N/C1=C\c1[nH]c(C)c(C(=O)CCCCC(=O)NCc2ccccc2)c1C`
TRUE

Could you kindly confirm the outcome this assay logged for `O=C(/C=C/c1ccccc1)n1c(-c2ccc(Cl)cc2)nc2ccccc21` ?
TRUE

State the result this test recorded for `COC(=O)c1ccc(C)cc1` .
FALSE

Returns: the outcome recorded for `O=C(Nc1ccc(Br)c(Cl)c1)c1cc(F)ccc1O` in this assay.
TRUE

Could you please tell me the result logged for `C=C1C(=O)O[C@H]2[C@H]1CC/C(COC(=O)NCc1cc(OC)c(OC)c(OC)c1)=C\CC[C@@]1(C)O[C@@H]21` in this assay?
FALSE

# outcome recorded in this test, key = O=C(c1ccccc1)C(Cl)C(Cl)c1ccccc1 (stereo not drawn)
FALSE

Outcome? `COc1ccc(/C(=N/O)c2cc(OC)c(OC)c(OC)c2)c(OC)c1N`
FALSE

# lookup: test call for CCC1CCc2nc3sc(C(=O)Nc4cccc(C)c4)c(N)c3cc2C1 (stereo not drawn)
FALSE

* * *

# System: SK-MEL-28 melanoma
# Assay Method Text: NCI-60 one-dose screen, 48 h (100 = growth as untreated, 0 = no growth, -100 = all killed)
# Experimental Context: 10 µM unless noted
This is part of a sample that, as a whole, favours compounds with a hit. Of some 83,000 tested, about 20% had one in any assay. Activity calls are given as the source filed them. Rule for the calls: active = growth percent below 10; inactive = the rest.
Exercise: state measured growth for each of the compounds provided.

# lookup: growth of COc1ccc(C2SCC(=O)N2NC(=O)c2ccc(NC(=O)c3ccccn3)cc2)cc1OC (stereo unspecified)
104% (inactive)

Record request: growth value, item `Cc1cc2c(C(C)C)c(O)c(O)c(C=NCCCCC(=O)O)c2c(O)c1-c1c(C)cc2c(C(C)C)c(O)c(O)c(C=NCCCCC(=O)O)c2c1O`
64.2% (inactive)

Value lookup for growth; key = `O=C(CCC(=O)OC1CCCC1)OC1CCCC1`
99.3% (inactive)

What does the data say about its growth? Entry: `C=CCOc1cccc(/C=C/C(=O)c2sc(Nc3cccnc3)nc2C)c1`
87.1% (inactive)

# growth lookup, item `CN1C(=O)[C@H]2c3c1cccc3[C@@]13NC(=O)O[C@H]1[C@H](CCC3(C)C)C2(C)C`
109% (inactive)

Look at this compound and give its reported growth. `COc1ccc(-c2nc3sccn3c2-c2ccnc(NCCCNS(=O)(=O)c3ccc(F)cc3)n2)cc1`
11.5% (inactive)

* * *

# Test system: ACHN renal
# Assay Method Text: NCI-60 one-dose screen, 48 h (100 = growth as untreated, 0 = no growth, -100 = all killed)
# Experimental Context: 10 µM unless noted
About 83,000 compounds went through this panel and 20% of them were active in at least one assay; those are over-represented in the sample as a whole.
Readout Name: growth (%)
Reply with just the number (in %).

Given the entry `COc1cc(-c2cc(/C=C3\CCCCC3=O)[nH]n2)cc(OC)c1OC` , report its measured growth.
98.7

Would you kindly share the measured growth for `OCc1c(-c2ccccc2)nc2sccn12` ?
98.4

Please look up its growth: `O=C(O)c1cn(C2CC2)c2cc(N3CCN(S(=O)(=O)c4ccc(Cl)c(Cl)c4)CC3)c(F)cc2c1=O`
4.95

# get_value(readout='growth', item= `COc1cc(NC(=O)CCl)ccc(=O)c1` )
74.7

Dear colleague, I am looking for the recorded growth of the following compound: `Nc1nc(-c2cc3ccccc3o2)cc(=O)c(=O)[nH]1`
94.3

May I ask what growth has been recorded for `CC(=O)Oc1cccc(OC(C)=O)c1OC(C)=O` ?
102

Param item = `COc1ccc(OC)c(-c2ccc(-c3ccccc3N)c3[nH]c4ccccc4c23)c1` ; retrieve measured growth.
80.7

Would you mind telling me what growth value was observed for `COc1ccc(/C=C/c2cc(N3CCOCC3)c3cc(F)c(F)cc3n2)cc1OC` ?
26.4

Please look up its growth: `C=C1C(=O)O[C@H]2[C@H]1CC/C(COC(=O)NCCc1ccc(Br)cc1)=C\CC[C@@]1(C)O[C@@H]21`
-60.1

growth for `CN1C(=O)[C@H]2c3c1cccc3[C@@]13NC(=O)O[C@H]1[C@H](CCC3(C)C)C2(C)C` ?
94.2

What measured growth goes with `COC(=O)CCCCCCN=Cc1c(O)c(O)c(C(C)C)c2cc(C)c(-c3c(C)cc4c(C(C)C)c(O)c(O)c(C=NCCCCCCC(=O)OC)c4c3O)c(O)c12` ?
21.6

What value of measured growth is listed for CCN1C(=O)N(CC)C2Nn3c(s/c(=C4\C(=O)N(C5CCCC5)c5ccccc54)c3=O)=NC21 (centres undefined) ?
59.2

Returns the measured growth for the input compound. Input: CCC(c1ccc(OC)cc1)C(CC)c1ccc(OCC[N+](C)(C)C)cc1 (centres undefined)
91

Report growth for CC(=O)Nc1ccc(S(=O)(=O)NC(CCC(=O)Nc2ccc(Cl)cc2)C(=O)O)cc1 (centres undefined) please.
75.7

# query: growth of entry `CCOP(=O)(CCN1CCN(CCCCCOc2cc3c(cc2OC)C(=O)N2CCC[C@H]2C=N3)CC1)OCC`
99.9

Using the record for `CSc1nc(-c2cc3ccccc3o2)cc(-c2ccc(Cl)cc2)c1C#N` , report its growth.
-63

Suppose we examine the compound CC(Br)C(Br)c1cc2c(cc1Br)OCO2 (centres undefined) ; what growth value has been reported?
93.2

# lookup: growth of `CC/C=C\C[C@H](O)C/C=C1/C(=O)C(Cl)=C[C@@H]1C/C=C\CCCC(=O)O`
45.3

Item `NC(=O)NNC(=O)c1ccccc1` has what recorded growth?
109
